protein stability index values, listed per item
B1: PPEF2 (parent)
chain: DHSGFISLDEFRQTWKLFSSHMNI

Variants of: B1
Assay comment: protein stability index of a GFP-peptide fusion (GPS, HEK-293T) (PSI 1-6); higher = more stable;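 also: lentivirally expressed fusions sorted by FACS into six bins by GFP to DsRed ratio, PSI derived from sequencing read proportions per bin multiplied by bin number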
Condition description: c terminus: a fixed tail appended
Readout label: protein stability index

>>> value_reported("DHSGFISLDEFRQTWMLFSSHMNI")
1.01
>>> value_reported("DHSGFISLDEFRQTWKLFSSHMTI")
2.83
>>> value_reported("DHWGFISLDEFRQTWKLFSSHMNI")
1.8
>>> value_reported("DHSGFISLDEFRQQWKLFSSHMNI")
2.08
>>> value_reported("DHSGFISLDEFRQTWKLFSSHMFI")
3.35
>>> value_reported("DHSGFISLDEMRQTWKLFSSHMNI")
2.14
>>> value_reported("DHSGFISLDEARQTWKLFSSHMNI")
1.32
>>> value_reported("DHSGFIILDEFRQTWKLFSSHMNI")
2.44
>>> value_reported("DKSGFISLDEFRQTWKLFSSHMNI")
2.01
>>> value_reported("DHSGFISLDEFRQRWKLFSSHMNI")
2.38
>>> value_reported("DHSGFISLDEFRQTWFLFSSHMNI")
1.94
>>> value_reported("DHSGFISLDEFRQTWKCFSSHMNI")
1.59
>>> value_reported("DHSGFISLDEFRQTWKLFSSHENI")
2.19
>>> value_reported("DHSGFISLAEFRQTWKLFSSHMNI")
3.05
>>> value_reported("DHSGRISLDEFRQTWKLFSSHMNI")
1.28
>>> value_reported("DHSGFISLDEFRQTWKLFSHHMNI")
1.63
>>> value_reported("DHSGFISLDEFRETWKLFSSHMNI")
2.36
>>> value_reported("DHSGFISLDEFTQTWKLFSSHMNI")
2.98
>>> value_reported("DHSGFISLDEFRQTWKAFSSHMNI")
2.07
>>> value_reported("DHSGFISLDEFRQTWKLLSSHMNI")
1.46
>>> value_reported("DHSGFISLDEFRQTWKLWSSHMNI")
1.87
>>> value_reported("DHSGFISLDEFRQTWKLFSSHMNA")
1.96
>>> value_reported("DHSGFISLDQFRQTWKLFSSHMNI")
1.96
>>> value_reported("DHSGFISLDEFRQTNKLFSSHMNI")
2.06
>>> value_reported("DHSGFISLDEFRQTWKLFHSHMNI")
1.88
>>> value_reported("DHSGFISLDTFRQTWKLFSSHMNI")
2.37
>>> value_reported("DHSGFRSLDEFRQTWKLFSSHMNI")
2.08
>>> value_reported("DHSGFIFLDEFRQTWKLFSSHMNI")
2.52
>>> value_reported("DHSGFISLDFFRQTWKLFSSHMNI")
1.72
>>> value_reported("DHSGFISLDEFMQTWKLFSSHMNI")
2.38
>>> value_reported("DHSGFISLDEFRQTWKLFASHMNI")
1.56
>>> value_reported("DHSGFISLDEFRQTWKLFSEHMNI")
2.43
>>> value_reported("DHSGFISWDEFRQTWKLFSSHMNI")
2.06
>>> value_reported("DHSGFISLDELRQTWKLFSSHMNI")
3.54
>>> value_reported("DHSGFISLDEFRQTWKLFSLHMNI")
2.03
>>> value_reported("DHSTFISLDEFRQTWKLFSSHMNI")
1.95
>>> value_reported("DHSQFISLDEFRQTWKLFSSHMNI")
2.47
>>> value_reported("DHSGFISLDEFRQTWKLFSSHLNI")
1.79
>>> value_reported("DHSGFISLDEFRQTWKLFSSKMNI")
1.63
>>> value_reported("DHSNFISLDEFRQTWKLFSSHMNI")
2.69
>>> value_reported("DHSGFISIDEFRQTWKLFSSHMNI")
2.24
>>> value_reported("GHSGFISLDEFRQTWKLFSSHMNI")
1.47
>>> value_reported("DHSGFISLDEFRQTWKLFSSHMQI")
1.86
>>> value_reported("IHSGFISLDEFRQTWKLFSSHMNI")
3.63
>>> value_reported("DHSGFISLDEFRYTWKLFSSHMNI")
1.45
>>> value_reported("DHSGFISLDEFCQTWKLFSSHMNI")
1.74
